Each record here notes measured glycan array binding signal (z-score).
- target-desc: Gal(b1-4)GlcNAc(b1-3)Gal(b1-4)GlcNAc(b1-3)[Gal(b1-4)GlcNAc(b1-3)Gal(b1-4)GlcNAc(b1-6)]GalNAc
- assay-summary: glycan array binding signal (z-score within array); higher = stronger binding
- recorded-conditions: glycan notation: IUPAC condensed, linker removed
The sample as a whole holds a higher share of the strongest signals than the screen did.

Use the examples below as a reference point.
binder	reading
rCnSL-proB (Clitocybe nebularis) (protein) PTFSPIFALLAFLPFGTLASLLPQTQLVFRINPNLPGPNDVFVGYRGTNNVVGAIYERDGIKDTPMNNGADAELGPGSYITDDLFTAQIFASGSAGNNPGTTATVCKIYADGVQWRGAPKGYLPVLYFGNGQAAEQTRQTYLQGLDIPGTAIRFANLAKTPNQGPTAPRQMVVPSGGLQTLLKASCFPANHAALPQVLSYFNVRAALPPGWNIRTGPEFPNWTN	4.08
LlpA1 (Pseudomonas fluorescens), Q4KHC3 (protein) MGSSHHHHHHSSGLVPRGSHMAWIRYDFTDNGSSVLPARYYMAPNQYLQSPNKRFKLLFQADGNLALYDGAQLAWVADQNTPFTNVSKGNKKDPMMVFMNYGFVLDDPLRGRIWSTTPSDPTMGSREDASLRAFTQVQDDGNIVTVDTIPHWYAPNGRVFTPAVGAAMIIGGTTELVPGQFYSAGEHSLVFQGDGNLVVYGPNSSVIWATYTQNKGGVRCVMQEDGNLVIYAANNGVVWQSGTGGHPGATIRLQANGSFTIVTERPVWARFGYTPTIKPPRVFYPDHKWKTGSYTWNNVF	2.36
LTL (Lotus tetragonolobus), P19664 (protein) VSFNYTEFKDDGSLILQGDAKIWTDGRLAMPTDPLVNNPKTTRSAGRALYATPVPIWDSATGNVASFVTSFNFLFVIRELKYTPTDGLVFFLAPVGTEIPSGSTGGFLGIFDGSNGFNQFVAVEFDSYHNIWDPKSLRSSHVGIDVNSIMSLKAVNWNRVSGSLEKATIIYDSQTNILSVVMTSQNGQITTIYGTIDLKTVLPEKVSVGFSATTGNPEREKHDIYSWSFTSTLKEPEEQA	2.93
Mermaid1 (Stilbonema majum) (protein) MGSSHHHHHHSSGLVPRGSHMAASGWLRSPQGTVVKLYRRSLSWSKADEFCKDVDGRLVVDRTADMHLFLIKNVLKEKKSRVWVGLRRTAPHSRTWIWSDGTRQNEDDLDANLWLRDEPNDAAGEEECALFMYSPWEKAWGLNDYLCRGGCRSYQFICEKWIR	-0.17

Proceed to the following item.
Sample SP16665A-bot-344-23-344 (Bacteroides ovatus) (protein) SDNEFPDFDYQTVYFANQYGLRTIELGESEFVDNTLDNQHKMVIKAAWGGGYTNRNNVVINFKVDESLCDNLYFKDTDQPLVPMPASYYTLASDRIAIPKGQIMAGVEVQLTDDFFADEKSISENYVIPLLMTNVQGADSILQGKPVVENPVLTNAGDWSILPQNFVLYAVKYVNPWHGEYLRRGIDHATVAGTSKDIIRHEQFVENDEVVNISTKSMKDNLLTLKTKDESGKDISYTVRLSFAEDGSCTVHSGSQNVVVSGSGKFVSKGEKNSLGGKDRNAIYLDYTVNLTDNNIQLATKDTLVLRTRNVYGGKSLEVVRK ; glycan array binding signal (z-score) observed: 0.116
